# targetSystem: mouse Tas2r144 (Mus musculus)
# Construct: expressed in transfected cells; host or cells: HEK293T-Gα16gust44
# Sequence (Q7TQB8 whole entry): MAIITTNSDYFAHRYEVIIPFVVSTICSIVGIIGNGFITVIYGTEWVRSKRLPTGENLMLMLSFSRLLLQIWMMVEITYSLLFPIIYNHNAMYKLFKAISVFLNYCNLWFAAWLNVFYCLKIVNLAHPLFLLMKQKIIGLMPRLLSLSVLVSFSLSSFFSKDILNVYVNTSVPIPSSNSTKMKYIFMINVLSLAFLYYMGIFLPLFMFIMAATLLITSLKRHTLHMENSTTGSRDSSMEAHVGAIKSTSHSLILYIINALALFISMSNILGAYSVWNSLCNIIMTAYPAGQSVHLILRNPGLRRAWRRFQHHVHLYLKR
# methodNotes: Calcium imaging assay (FLIPR), HEK293T-Gα16gust44 cells transfected with mouse Tas2r144
# Assay type: cell-based
# experimentalConditions: Time 136.781 s

compound: C[C@H](CCC(=O)O)[C@H]1CC[C@H]2[C@@H]3[C@H](O)C[C@@H]4C[C@H](O)CC[C@]4(C)[C@H]3C[C@H](O)[C@]12C [Cholic Acid, cholic acid]
RLU: 292.52 RLU

compound: C[C@H](CCC(=O)NCC(=O)O)[C@H]1CC[C@H]2[C@@H]3[C@H](O)C[C@@H]4C[C@H](O)CC[C@]4(C)[C@H]3C[C@H](O)[C@]12C [Glycocholic Acid, glycocholic acid]
RLU: 246.641 RLU

compound: C[C@H](CCC(=O)NCCS(=O)(=O)O)[C@H]1CC[C@H]2[C@@H]3[C@H](O)C[C@@H]4C[C@H](O)CC[C@]4(C)[C@H]3C[C@H](O)[C@]12C [Taurocholic Acid, taurocholic acid]
RLU: 381.514 RLU

compound: C[C@H](CCC(=O)NCCS(=O)(=O)O)[C@H]1CC[C@H]2[C@@H]3CC[C@@H]4C[C@H](O)CC[C@]4(C)[C@H]3CC[C@]12C [Taurolithocholic Acid, taurolithocholic acid]
RLU: 298.284 RLU
